Items are presented alongside their recorded maximal growth inhibition.
Tested on: HGGX2 (paediatric high-grade glioma line)
PROTOCOL DESCRIPTION: maximal growth inhibition (yFin) relative to DMSO / staurosporine; higher = more efficacious
VALUE TYPE: maximal growth inhibition (%)

>>> df
                                   compound                 value_type  unit  recorded_result
0  N#CN=C(NCCCCCCOc1ccc(Cl)cc1)Nc1ccncc1 [GMX-1778]  maximal growth inhibition     %              103
1  CC(C)N(CCCNC(=O)Nc1ccc(C(C)(C)C)cc1)C[C@H]1O[C@@H](n2cc(Br)c3c(N)ncnc32)[C@H](O)[C@@H]1O [SGC0946]  maximal growth inhibition     %              100
2  CC(=O)c1ccc2c(c1)c1cc(C(C)=O)ccc1n2CCNC(C)C [CBL-0137]  maximal growth inhibition     %             83.4
3  O=C(Nc1c[nH]nc1-c1nc2ccc(CN3CCOCC3)cc2[nH]1)NC1CC1 [AT9283]  maximal growth inhibition     %             96.7
4  COc1cccc2c1C(=O)c1c(O)c3c(c(O)c1C2=O)C[C@@](O)(C(=O)CO)C[C@@H]3O[C@H]1C[C@H](N)[C@H](O)[C@H](C)O1 [DOXORUBICIN]  maximal growth inhibition     %             61.1
5  CCNC(=O)c1noc(-c2cc(C(C)C)c(O)cc2O)c1-c1ccc(CN2CCOCC2)cc1 [NVP-AUY922]  maximal growth inhibition     %             49.9
6  Cc1[nH]c2ccccc2c1CCNCc1ccc(/C=C/C(=O)NO)cc1 [PANOBINOSTAT]  maximal growth inhibition     %               90
7  CCCCc1oc2ccc(NS(C)(=O)=O)cc2c1C(=O)c1ccc(OCCCN(CCCC)CCCC)cc1 [DRONEDARONE]  maximal growth inhibition     %              116

====

Tested on: DIPGX9 (diffuse intrinsic pontine glioma line)
PROTOCOL DESCRIPTION: area under dose-response curve of % growth inhibition (log2 RLU vs DMSO / staurosporine), 1e-11 to 1e-4 M (% x log10 M); higher = more growth inhibition
Cut-off 200 on area under dose-response curve, inclusive. At or above means satisfied; below means not satisfied.

MOLECULE	CATEGORY
Cc1nc(Nc2ncc(C(=O)Nc3c(C)cccc3Cl)s2)cc(N2CCN(CCO)CC2)n1	not satisfied
C=CCNC1=C2C[C@@H](C)C[C@H](OC)[C@H](O)[C@@H](C)/C=C(\C)[C@H](OC(N)=O)[C@@H](OC)/C=C\C=C(/C)C(=O)NC(=CC1=O)C2=O	satisfied
CCNC(=O)c1noc(-c2cc(C(C)C)c(O)cc2O)c1-c1ccc(CN2CCOCC2)cc1	satisfied
CO[C@H]1C[C@@H]2CC[C@@H](C)[C@@](O)(O2)C(=O)C(=O)N2CCCC[C@H]2C(=O)O[C@H]([C@H](C)C[C@@H]2CC[C@@H](OCCO)[C@H](OC)C2)CC(=O)[C@H](C)/C=C(\C)[C@@H](O)[C@@H](OC)C(=O)[C@H](C)C[C@H](C)/C=C/C=C/C=C/1C	not satisfied
CCN1CCN(Cc2ccc(Nc3ncc(F)c(-c4cc(F)c5nc(C)n(C(C)C)c5c4)n3)nc2)CC1	not satisfied
NC1CCC(Nc2cc(-c3cccc(NCc4cccc(F)c4)n3)c(Cl)cn2)CC1 (stereo unspecified)	satisfied
COc1ncc(-c2ccc3nccc(-c4ccnnc4)c3c2)cc1NS(=O)(=O)c1ccc(F)cc1F	satisfied
CCN(c1cc(-c2ccc(CN3CCOCC3)cc2)cc(C(=O)NCc2c(C)cc(C)[nH]c2=O)c1C)C1CCOCC1	not satisfied
C[C@@H]1O[C@@H](O[C@H]2C[C@@H](O)[C@]3(CO)[C@H]4[C@H](O)C[C@]5(C)[C@@H](C6=CC(=O)OC6)CC[C@]5(O)[C@@H]4CC[C@]3(O)C2)[C@H](O)[C@H](O)[C@H]1O	not satisfied
